Consider the following compounds; for each one, report its %Inh.
- System: RSK1(Kin.Dom.2-C-terminal);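 also: KINOMEscan kinase panel screen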
- Construct: gene RPS6KA1
- conditionLabel: concentration: 1 μM, replicates: in singlicate; n = 1
// return numeric value only (unit: %, not printed)

Exam item: %Inh lookup needed for "CN(C)CCOc1ccc(-c2cc(-c3ccc(Cl)c(O)c3)c(-c3ccncc3)[nH]2)cc1.Cl.Cl" , thanks.
Marked response: 23

Exam item: Now the same for "Cc1ccc(O)cc1Nc1ccnc2ccc(C(C)(C)C)cc12"
Marked response: 0

Exam item: Try "Cc1ccc(NC(=O)c2ccc(Cl)c(Cl)c2)cc1-c1ccc(C(=O)Nc2ccncc2)cc1" next.
Marked response: 2

Exam item: Now give it for "CN(C)c1ncnc2nc[nH]c12" too.
Marked response: 0

Exam item: And "CCn1c(-c2nonc2N)nc2c(-c3ccccc3)ncc(OCCCN)c21.O=C(O)C(F)(F)F.O=C(O)C(F)(F)F" ?
Marked response: 50

Exam item: Proceed to "Cc1cccc(Nc2nc(NCCN)ncc2C(N)=O)c1"
Marked response: 31

Exam item: Entry "CC(C)c1nc(-c2ccc(F)c(NS(=O)(=O)c3c(F)cccc3F)c2)c(-c2ccnc(Nc3ccc(N4CCOCC4)nc3)n2)s1" please
Marked response: 9

Exam item: Thanks! And "COC(=O)Nc1nc2ccc(Oc3ccc(CC(=O)Nc4cc(C(F)(F)F)ccc4F)cc3)cc2[nH]1" ?
Marked response: 4

Exam item: And what about the compound "c1ccc(Oc2ccc(Nc3ccnc4cc(-c5ccc(CN6CCCCC6)o5)ccc34)cc2)nc1" ?
Marked response: 0
